# Species on record: Canis familiaris
# ASSAY: Maximum percent change in conduction time (CT) at 1 uM concentration tested on Canine ventricular muscle fibre
# Type: functional, Canis lupus familiaris, Muscle tissue
Listed here: items and their measured CT.
MEASURE_NAME: CT (%)

>>> value_reported("CCN(CC)CCNC(=O)c1[nH]c(C)c(C)c1C")
-5
>>> value_reported("CCN(CC)CCNC(=O)c1cc2cccc(O)c2[nH]1")
-3
>>> value_reported("CCN(CC)CCNC(=O)c1ccc(N)cc1 [PROCAINAMIDE]")
5
>>> value_reported("CCN(CC)CCNC(=O)c1ccc(NC(C)=O)cc1 [ACECAINIDE]")
-9
>>> value_reported("CCN(CC)CCNC(=O)c1c(O)cc(C)nc1C")
-5
>>> value_reported("CCN(CC)CCCNC(=O)c1[nH]c(C)c(C)c1C")
6
>>> value_reported("CCN(CC)CCCNC(=O)c1c(C)[nH]c(C)c1C")
-3
